pEC50 by entry:
- Experiment: Cytotoxicity against human MDA-MB-231 cells assessed as reduction in cell viability measured after 48 hrs by resazurin dye-based fluorometric analysis
- Type: functional
- Assay conditions: MDA-MB-231, 48 h
pEC50: −log10 of the molar value.

{"Compound": "CC(C)(C)c1ocnc1/C=c1\\[nH]c(=O)/c(=C/c2cc(F)cc(F)c2F)[nH]c1=O", "pEC50": 7.28}
{"Compound": "CC(C)(C)c1ocnc1/C=c1\\[nH]c(=O)/c(=C/c2c(F)c(F)cc(F)c2F)[nH]c1=O", "pEC50": 7.38}
{"Compound": "CC(C)(C)c1ocnc1/C=c1\\[nH]c(=O)/c(=C/c2cccc(F)c2)[nH]c1=O", "pEC50": 7.62}
{"Compound": "CC(C)(C)c1[nH]cnc1/C=C1\\NC(=O)C(Cc2ccccc2)NC1=O (stereo unspecified)", "pEC50": 6.41}
{"Compound": "CC(C)(C)c1ocnc1/C=c1\\[nH]c(=O)/c(=C/c2ccccc2)[nH]c1=O.O=C(O)C(F)(F)F", "pEC50": 7.39}
{"Compound": "CC(C)(C)c1[nH]cnc1/C=c1\\[nH]c(=O)/c(=C/c2ccccc2)[nH]c1=O", "pEC50": 7.86}

====

- Experiment: Antiproliferative activity against taxol-resistant human MES-SA/Dx5 cells expressing MDR1 mRNA and P-gp pretreated with p-gp inhibitor cyclosporinA followed by compound addition
- Format: functional, cell-based
Recorded endpoint: IC50 (nM)

{"Molecule": "CC(C)(C)c1[nH]cnc1/C=C1\\NC(=O)C(Cc2ccccc2)NC1=O (configuration not stated)", "Units of measure": "nM", "Measurement": 622}
